// provenance: ChEMBL document CHEMBL1134584

Biological target: UniProt:P30872
Sequence (P30872 whole entry): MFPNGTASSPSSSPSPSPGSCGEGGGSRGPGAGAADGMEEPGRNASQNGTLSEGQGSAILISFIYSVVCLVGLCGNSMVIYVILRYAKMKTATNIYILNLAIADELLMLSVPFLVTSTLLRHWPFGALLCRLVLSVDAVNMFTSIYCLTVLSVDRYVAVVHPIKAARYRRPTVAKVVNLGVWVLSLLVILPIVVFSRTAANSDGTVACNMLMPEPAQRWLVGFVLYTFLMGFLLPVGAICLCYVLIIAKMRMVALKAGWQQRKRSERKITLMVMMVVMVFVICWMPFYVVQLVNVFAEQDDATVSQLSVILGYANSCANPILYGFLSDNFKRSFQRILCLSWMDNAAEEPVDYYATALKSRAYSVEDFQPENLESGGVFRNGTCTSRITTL
Experiment: Inhibition of [125 I -Tyr]SRIF-14 binding to membranes isolated from CHO-K1 cells expressing cloned human SRIF receptor (sst-1) subtype
assay metric: pKi
Scale note: pKi = -log10(concentration in M).

query: Fill in the blank: the reported pKi of CC1(C2CCCCC2)N[C@H](c2nc(-c3ccccc3)c[nH]2)Cc2c1[nH]c1ccccc21 (stereo not given in full) is ____.
result: 5.36

query: Fill in the blank: the reported pKi of c1ccc(-c2c[nH]c(C3Cc4c([nH]c5ccccc45)C(C4CCCCC4)N3)n2)cc1 (stereo not given) is ____.
result: 5.74

query: Fill in the blank: the reported pKi of CCCCC1(CCCC)N[C@@H](c2nc(-c3ccccc3)c[nH]2)Cc2c1[nH]c1ccccc21 is ____.
result: 5.43

* * *

Ki for assorted compounds
Target: Somatostatin receptor type 4 (Homo sapiens)
Sequence (P31391 whole entry): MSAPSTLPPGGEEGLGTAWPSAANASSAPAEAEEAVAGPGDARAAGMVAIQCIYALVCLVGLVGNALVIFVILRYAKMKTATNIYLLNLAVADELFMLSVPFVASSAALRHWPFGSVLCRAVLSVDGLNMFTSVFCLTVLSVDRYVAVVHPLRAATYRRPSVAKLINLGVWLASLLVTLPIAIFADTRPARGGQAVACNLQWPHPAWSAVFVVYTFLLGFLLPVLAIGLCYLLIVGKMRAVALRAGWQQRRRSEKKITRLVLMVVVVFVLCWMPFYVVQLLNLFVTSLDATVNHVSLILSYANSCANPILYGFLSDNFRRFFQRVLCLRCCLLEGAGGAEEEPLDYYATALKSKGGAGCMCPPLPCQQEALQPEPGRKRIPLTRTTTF
Assay: Inhibition of [125 I -Tyr]SRIF-14 binding to membranes isolated from CHO-K1 cells expressing cloned human SRIF receptor (sst-4) subtype

Some compounds with recorded Ki:
query: Quick check: Ki on Somatostatin receptor type 4 (Homo sapiens), item CCCCCC1(CCCCC)N[C@H](c2nc(-c3ccccc3)c[nH]2)Cc2c1[nH]c1ccccc21 ?
result: > 10 µM

query: Quick check: Ki on Somatostatin receptor type 4 (Homo sapiens), item CC1(C2CCCCC2)N[C@H](c2nc(-c3ccccc3)c[nH]2)Cc2c1[nH]c1ccccc21 (stereo partly drawn) ?
result: > 10 µM

---
query: Quick check: Ki on Somatostatin receptor type 4 (Homo sapiens), item c1ccc(-c2c[nH]c(C3Cc4c([nH]c5ccccc45)C(C4CCCCC4)N3)n2)cc1 (stereo not drawn) ?
result: > 10 µM

* * *

Target: Somatostatin receptor type 5 (Homo sapiens)
Sequence (P35346 whole entry): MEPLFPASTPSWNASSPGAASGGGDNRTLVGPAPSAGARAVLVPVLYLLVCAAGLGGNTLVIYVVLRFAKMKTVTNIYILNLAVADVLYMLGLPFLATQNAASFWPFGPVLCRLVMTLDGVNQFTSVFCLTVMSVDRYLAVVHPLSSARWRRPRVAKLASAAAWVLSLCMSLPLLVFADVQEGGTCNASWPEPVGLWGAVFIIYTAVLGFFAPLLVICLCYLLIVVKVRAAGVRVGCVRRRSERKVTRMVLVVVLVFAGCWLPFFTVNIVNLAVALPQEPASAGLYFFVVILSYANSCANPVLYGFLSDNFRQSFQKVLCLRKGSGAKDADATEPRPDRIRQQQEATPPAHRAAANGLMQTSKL
Test: Inhibition of [125 I -Tyr]SRIF-14 binding to membranes isolated from CHO-K1 cells expressing cloned human SRIF receptor (sst-5) subtype
pKi: −log10 of the molar value.
pKi for assorted compounds

Some compounds with recorded pKi:
query: Fill in the blank: the reported pKi of CC1(C2CCCCC2)N[C@H](c2nc(-c3ccccc3)c[nH]2)Cc2c1[nH]c1ccccc21 (stereo partly drawn) is ____.
result: < 5.00

query: Fill in the blank: the reported pKi of c1ccc(-c2c[nH]c(C3Cc4c([nH]c5ccccc45)C(C4CCCCC4)N3)n2)cc1 (stereo not drawn) is ____.
result: < 5.00

Now examine the next entry.
query: Fill in the blank: the reported pKi of CCCCCC1(CCCCC)N[C@H](c2nc(-c3ccccc3)c[nH]2)Cc2c1[nH]c1ccccc21 is ____.
result: < 5.00
